Recorded values, source patent US20240043504A1.

Target: SARS-COV-2 RBD extracellular domain expressed with a C-terminal mouse IgG2a (SARS-CoV-2)
Experiment: SPR Biacore, mAb captured via anti-hFc, 25 C

binder	Kd [nM]
mAb10913 (antibody, V domains shown) VH: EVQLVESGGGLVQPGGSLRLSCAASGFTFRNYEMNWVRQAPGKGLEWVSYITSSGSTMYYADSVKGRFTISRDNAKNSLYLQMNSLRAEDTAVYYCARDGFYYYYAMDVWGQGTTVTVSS VL: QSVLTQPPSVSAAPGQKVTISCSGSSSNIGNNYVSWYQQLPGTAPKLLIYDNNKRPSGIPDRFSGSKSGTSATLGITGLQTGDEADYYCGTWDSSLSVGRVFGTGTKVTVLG	0.0553
mAb10914 (antibody, V domains shown) VH: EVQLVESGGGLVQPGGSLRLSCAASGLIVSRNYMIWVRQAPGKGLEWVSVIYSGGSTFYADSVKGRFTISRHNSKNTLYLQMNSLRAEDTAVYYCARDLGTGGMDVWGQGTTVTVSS VL: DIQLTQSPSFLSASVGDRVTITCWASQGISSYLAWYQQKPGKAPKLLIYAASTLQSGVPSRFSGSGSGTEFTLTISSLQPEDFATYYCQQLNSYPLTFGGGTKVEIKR	0.54
mAb10935 (antibody, V domains shown) VH: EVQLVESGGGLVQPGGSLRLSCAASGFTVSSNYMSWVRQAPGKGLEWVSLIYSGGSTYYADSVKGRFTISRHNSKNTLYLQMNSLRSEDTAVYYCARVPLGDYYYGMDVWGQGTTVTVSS VL: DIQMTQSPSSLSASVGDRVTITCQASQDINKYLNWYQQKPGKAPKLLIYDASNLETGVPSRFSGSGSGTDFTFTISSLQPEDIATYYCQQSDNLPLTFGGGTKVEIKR	0.0794
mAb10986 (antibody, V domains shown) VH: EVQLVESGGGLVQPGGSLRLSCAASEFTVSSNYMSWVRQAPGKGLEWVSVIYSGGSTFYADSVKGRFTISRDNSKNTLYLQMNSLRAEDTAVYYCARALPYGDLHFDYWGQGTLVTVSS VL: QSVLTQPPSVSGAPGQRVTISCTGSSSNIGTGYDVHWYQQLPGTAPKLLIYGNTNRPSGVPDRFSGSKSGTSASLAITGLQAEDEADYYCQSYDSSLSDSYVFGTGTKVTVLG	0.00888
mAb10998 (antibody, V domains shown) VH: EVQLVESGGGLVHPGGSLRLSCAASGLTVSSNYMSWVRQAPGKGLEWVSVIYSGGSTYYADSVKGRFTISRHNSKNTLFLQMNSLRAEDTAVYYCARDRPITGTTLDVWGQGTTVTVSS VL: DIQMTQSPSSLFASVGDRVTITCRASQSISSYLNWYQQKPGKAPKLLIYAASSLQSGVPSRFSGSGSGTDFTLTISSLQPEDFAFYYCQQTYSTPPITFGQGTRLEIKR	2.44
mAb10982 (antibody, V domains shown) VH: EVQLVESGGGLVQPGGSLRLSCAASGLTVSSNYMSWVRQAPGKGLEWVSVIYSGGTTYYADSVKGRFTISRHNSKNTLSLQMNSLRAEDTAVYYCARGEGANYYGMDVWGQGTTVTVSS VL: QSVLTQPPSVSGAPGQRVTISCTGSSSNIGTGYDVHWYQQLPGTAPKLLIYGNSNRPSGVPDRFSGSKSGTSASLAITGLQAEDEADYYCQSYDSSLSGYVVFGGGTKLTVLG	0.0886
mAb10957 (antibody, V domains shown) VH: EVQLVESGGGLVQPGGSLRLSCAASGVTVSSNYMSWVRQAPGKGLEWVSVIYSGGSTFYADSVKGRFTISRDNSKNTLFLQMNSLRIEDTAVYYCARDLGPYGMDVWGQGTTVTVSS VL: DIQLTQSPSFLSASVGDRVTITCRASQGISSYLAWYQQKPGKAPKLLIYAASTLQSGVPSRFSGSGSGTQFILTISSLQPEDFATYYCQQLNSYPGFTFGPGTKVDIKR	0.0327
mAb10984 (antibody, V domains shown) VH: EVQLVESGGGLVQPGGSLRLSCAASGLTVNRNYMSWVRQAPGKGLEWVSLIYSGGSTYYADSVKGRFTISRDNSKNTLYLQMNSLRLEDTAVYYCARGELGIPYGMDVWGQGTTVTVSS VL: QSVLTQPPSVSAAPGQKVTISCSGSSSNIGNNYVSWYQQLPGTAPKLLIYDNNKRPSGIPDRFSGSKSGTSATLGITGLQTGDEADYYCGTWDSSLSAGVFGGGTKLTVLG	0.0286
mAb10967 (antibody, V domains shown) VH: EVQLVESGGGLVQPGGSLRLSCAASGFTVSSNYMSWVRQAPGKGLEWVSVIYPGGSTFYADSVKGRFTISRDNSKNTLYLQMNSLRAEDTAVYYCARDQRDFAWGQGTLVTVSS VL: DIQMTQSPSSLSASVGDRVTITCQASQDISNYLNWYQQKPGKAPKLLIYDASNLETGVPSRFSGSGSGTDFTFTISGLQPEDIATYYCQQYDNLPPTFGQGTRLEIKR	0.0203
mAb11004 (antibody, V domains shown) VH: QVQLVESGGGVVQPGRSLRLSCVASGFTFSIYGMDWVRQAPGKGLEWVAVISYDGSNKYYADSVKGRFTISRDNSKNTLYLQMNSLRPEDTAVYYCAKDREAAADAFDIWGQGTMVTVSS VL: DIQMTQSPSSVSASVGDRVTITCRASQGISSWLAWYQQKPGKAPKLLIYAASSLHSGVPSRFSGSGSGTDFTLTISSLQPEDFATYYCQQANSFRLTFGGGTKVEIKR	0.0921
